Data origin, for the record: patent US20210403506A1

Target: T1, human Chemokine like receptor 1 (human, UniProt Q99788 1-373)
T1 sequence (looked up): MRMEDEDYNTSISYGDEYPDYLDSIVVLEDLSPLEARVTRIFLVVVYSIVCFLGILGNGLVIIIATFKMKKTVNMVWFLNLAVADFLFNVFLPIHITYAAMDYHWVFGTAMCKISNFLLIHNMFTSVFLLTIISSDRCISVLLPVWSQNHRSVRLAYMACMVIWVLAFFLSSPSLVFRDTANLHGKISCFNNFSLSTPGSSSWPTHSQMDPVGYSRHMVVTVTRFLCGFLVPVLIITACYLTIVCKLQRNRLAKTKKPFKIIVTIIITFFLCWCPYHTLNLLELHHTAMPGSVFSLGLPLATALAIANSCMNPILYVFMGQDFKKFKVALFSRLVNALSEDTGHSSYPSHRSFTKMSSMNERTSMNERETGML
Test: cell-based or functional assay
Square brackets hold non-standard residues; d marks the D form. Ends that are not written are not given here. 2Nal = N[C@@H](Cc1ccc2ccccc2c1)C(=O)O; Tic = O=C(O)[C@@H]1Cc2ccccc2CN1; NMeL = CN[C@@H](CC(C)C)C(=O)O; Thz = O=C(O)[C@@H]1CSCN1
REPORTED_PROPERTY: EC50 (µM), activation of Tango CMKLR1-bla U2OS cells

BINDER	VALUE_REPORTED
GG[dY]F[NMeL]P[dS]Q[2Nal][dA][Tic]S (not fully specified (residue 6, N-terminus)) [YW-223]	0.00033
[dY]F[NMeL]P[dHoSer]QF[dA][Tic]S-OH [YW-175]	0.091
[dY]F[NMeL][Thz][dS]Q[2Nal][dA][Tic]S-OH [YW-122]	0.0006
